System: Jurkat cells
Assay: Tacrolimus dose response of FKBP13-AcGFP-mCherry constructs stably transduced into Jurkat cells, GFP MFI by flow cytometry
Type: cell-based
Conditions: tacrolimus; FIGS. 29 and 30
Measured FC accompanies every entry in the list below.
Write the number on its own, no unit after it.

[
  {
    "molecule": "FKBP-195: combinatorial FKBP13 mutant construct of Table 10, carries K135Y (protein, Description of sequence: Construct Name: FKBP-195; Mutation(s): Q72R Q84E A117W V85R DRD K135Y) HCPIKSRKGDVLHMHYTGKLEDGTEFDSSLPRNQPFVFSLGTGERIKGWDQGLLGMCEGEKRKLVIPSELGYGERGWPPKIPGGATLVFEVELLYIER",
    "value": 66
  },
  {
    "molecule": "FKBP-259: FKBP13 DRD-AcGFP construct of Table 10 (protein, Description of sequence: Construct Name: FKBP-259; Mutation(s): Q72R Q84E A117W V85R DRD E130K) HCPIKSRKGDVLHMHYTGKLEDGTEFDSSLPRNQPFVFSLGTGERIKGWDQGLLGMCEGEKRKLVIPSELGYGERGWPPKIPGGATLVFKVELLKIER",
    "value": 103
  },
  {
    "molecule": "FKBP-256: FKBP13 DRD-AcGFP construct of Table 10 (protein, Description of sequence: Construct Name: FKBP-256; Mutation(s): Q72R Q84E A117W V85R DRD E137M) HCPIKSRKGDVLHMHYTGKLEDGTEFDSSLPRNQPFVFSLGTGERIKGWDQGLLGMCEGEKRKLVIPSELGYGERGWPPKIPGGATLVFEVELLKIMR",
    "value": 78
  }
]

Qu. What measured FC goes with FKBP-257: FKBP13 DRD-AcGFP construct of Table 10 (protein, Description of sequence: Construct Name: FKBP-257; Mutation(s): Q72R Q84E A117W V85R DRD E137F) HCPIKSRKGDVLHMHYTGKLEDGTEFDSSLPRNQPFVFSLGTGERIKGWDQGLLGMCEGEKRKLVIPSELGYGERGWPPKIPGGATLVFEVELLKIFR ?
Ans. 65
